B1: CPEB3 Ribozyme (parent)
chain: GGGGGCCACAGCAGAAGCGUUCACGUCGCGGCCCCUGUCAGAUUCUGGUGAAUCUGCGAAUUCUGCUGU

Variants of: B1
ASSAY: self-cleavage, relative activity (ratio to wild type); higher = more cleavage; co-transcriptional
Answer each item with its documented self-cleavage.
Answers are plain numbers.

Below, 4 variants whose answers are already recorded.
RESIDUES: GGGGGCCACAGCAGAAGCGUUGACGUCGCGGCCCCUGUCAGAUUCUGGUAAAUCUGCGAAUUCUGCUGU [C22G G50A]
self-cleavage: 0.189

RESIDUES: GGGGGCCACAGCAGAAGCGUUCACGUCGCGGCCCCUGUCAGAUUCUGGUGAAUCUACGAAUUCGGCUGU [G56A U64G]
self-cleavage: 0.828

RESIDUES: GGGGGCCACAGCAGAAGCGUUCACGUCGCGGCCCCUGUCAGAUUCUGGUGAAUCUGCGAAGUCUGCGGU [U61G U67G]
self-cleavage: 0.808

RESIDUES: GGGGGCCACCGCAGAAGCGUUCACGUCGCGGCCCCUGUCAGAUUCUGGUGAAUCGGCGAAUUCUGCUGU [A10C U55G]
self-cleavage: 0.799

Provide self-cleavage values for the following items, in order.
1. GGGGGCCACAGCAGAAGCGUUCACGACGCGGCCCCUGUCAGAUUCUCGUGAAUCUGCGAAUUCUGCUGU [U26A G47C]
2. GGGGGCCACAGCUGAAGCGUUCACGUCGCGGCCCCUGUCAGAUUCUGGUGAAUGUGCGAAUUCUGCUGU [A13U C54G]
3. GGGGGCCACAGCAGAAGCGUUCACGUCGCGGCCCCUGUCAGAAUCUGGUGAAUCUGGGAAUUCUGCUGU [U43A C57G]
4. GGGGGCCACAGCAGAAGCGUUCACGUCGCGGCUCCUGUCAGAUUCUGGUGAUUCUGCGAAUUCUGCUGU [C33U A52U]
5. GGGGGCCACAGCAGAAGCCUUCACGUCGCGGCCCCUGUCAGAUUCUGGUGAAUCUGCAAAUUCUGCUGU [G19C G58A]
6. GGUGGCGACAGCAGAAGCGUUCACGUCGCGGCCCCUGUCAGAUUCUGGUGAAUCUGCGAAUUCUGCUGU [G3U C7G]
7. GGGGCCCACAGCAGAAGCGUUCACGUCGCGGCCCCUGUCAGAUUCUGGUGAAUCUGCGAUUUCUGCUGU [G5C A60U]

A:
0.891
0.419
0.357
0.922
0.162
0.0286
0.164

Provide self-cleavage values for the following items, in order.
1. GGGGGCCACGGCAGAAGCGUUCACGUCGCGGACCCUGUCAGAUUCUGGUGAAUCUGCGAAUUCUGCUGU [A10G C32A]
2. GGGGGCCACAGCAGAAGCGUUCACGCUGCGGCCCCUGUCAGAUUCUGGUGAAUCUGCGAAUUCUGCUGU [U26C C27U]

A:
0.847
0.182

Provide self-cleavage values for the following items, in order.
1. GGGGGCCACAGCAGAAGCGUUCAGGUCGCGGCCCCUGUCAGAUUCUGGUGACUCUGCGAAUUCUGCUGU [C24G A52C]
2. GGGGGCCCCAGCUGAAGCGUUCACGUCGCGGCCCCUGUCAGAUUCUGGUGAAUCUGCGAAUUCUGCUGU [A8C A13U]
3. GGGGGCCACAGCAGAAGCGUUCACGUCGCGGCCCCGGUCAGCUUCUGGUGAAUCUGCGAAUUCUGCUGU [U36G A42C]
4. GGGGGCCAAAGCAGAGGCGUUCACGUCGCGGCCCCUGUCAGAUUCUGGUGAAUCUGCGAAUUCUGCUGU [C9A A16G]
5. GGGGGCCACAGCAGAAGCGUUCACGUCGCGGCCCCUGUCAGAUUCUGGUGAAUCAGCGAAUACUGCUGU [U55A U62A]

A:
1. 0.391
2. 0.849
3. 0.221
4. 0.992
5. 0.489

Provide self-cleavage values for the following items, in order.
1. GGGGGCCAGAGCAGAAGCGUUCACGUCGCGGCCCCUGUCAGAUUCUUGUGAAUCUGCGAAUUCUGCUGU [C9G G47U]
2. GGGGGCCACAGCAGAAGAGUUCACGUUGCGGCCCCUGUCAGAUUCUGGUGAAUCUGCGAAUUCUGCUGU [C18A C27U]
3. GGGGGCCACAGCAGAAGCGUUCACGUCGCGGCCCGUGUCAGAUUCUGGUGAAUCUGCGAAUUGUGCUGU [C35G C63G]

A:
1.04
0.12
0.361

Provide self-cleavage values for the following items, in order.
1. UGGGGCCACAGCAGAAGCGUUCACGUCGCGGCCCCUGUCGGAUUCUGGUGAAUCUGCGAAUUCUGCUGU [G1U A40G]
2. GGGGGCCACAGCGGAAGCGUUCACGUCGCGGCCCCUGUCAGAUUCUGGUGAAUCUGCGAAUUCUGCUGA [A13G U69A]

A:
1: 0.0819; 2: 1

Provide self-cleavage values for the following items, in order.
1. GUGGGCCACAGCAGAAGCGUUCACGUCGCGGCCCCUGUCAGAUUCUGGUGAAUCUGCGAAUUCUGUUGU [G2U C66U]
2. GGGGGCCACAGCAGAAGCGUUCACGUCGCGGCCCCUGUCAGAUUUCGGUGAAUCUGCGAAUUCUGCUGU [C45U U46C]

A:
1. 0.096
2. 0.975

Provide self-cleavage values for the following items, in order.
1. GGGGGCCACCGCAGAAGCGUUCACGUCGCGGCCCCUGUCAGAUUCUGGUGAAUCUGCGAAUUCUGGUGU [A10C C66G]
2. GGGGGCCACAGCAGGAGCGUUCACGUCGCGGCCCCUGUCAAAUUCUGGUGAAUCUGCGAAUUCUGCUGU [A15G G41A]
3. GGGGGCCACAGCACAAGCGUUCACGUCGCGGCCCCUGUCAGAUUCUGGUGAAUCUGCUAAUUCUGCUGU [G14C G58U]
4. GGGGGCCACAGCAGAAGCGUUCACGUCGCAGCCCCUGUCAGAUUCUGGUGAAUCUGCGAAUUCGGCUGU [G30A U64G]
5. GGGGGCCACAGCAGAAGCGUUCACGUCGCAGCCCCUGUCAGAUUCUGGUUAAUCUGCGAAUUCUGCUGU [G30A G50U]
6. GGGGGCCACAGCAGAAGCGUUCACGUCGCGGUCCCAGUCAGAUUCUGGUGAAUCUGCGAAUUCUGCUGU [C32U U36A]
7. GGGUGCCACAGCAGAAGCGUUCACGUCGCGGCCCCUGUCAGCUUCUGGUGAAUCUGCGAAUUCUGCUGU [G4U A42C]

A:
1: 0.892; 2: 0.732; 3: 0.817; 4: 0.624; 5: 0.856; 6: 0.216; 7: 0.179

Provide self-cleavage values for the following items, in order.
1. GGGGGCCACAGCAGAAGCGUUCACGUCGCGGCCCCUGUCAGAUUCUGGUGAAACUGCGAAUUCUGCUGC [U53A U69C]
2. GGGGGCCACAGCAGAAGAGUUCACGUCGCGGCCCCUGUCAAAUUCUGGUGAAUCUGCGAAUUCUGCUGU [C18A G41A]

A:
[1.06, 0.156]
